Just for reference, patent US8426447B2 is where these values come from.

Provide the reported pIC50 of each item.
# assayed_target: BACE1 (Homo sapiens, UniProt P56817)
# Sequence (P56817 46-501, species assumed): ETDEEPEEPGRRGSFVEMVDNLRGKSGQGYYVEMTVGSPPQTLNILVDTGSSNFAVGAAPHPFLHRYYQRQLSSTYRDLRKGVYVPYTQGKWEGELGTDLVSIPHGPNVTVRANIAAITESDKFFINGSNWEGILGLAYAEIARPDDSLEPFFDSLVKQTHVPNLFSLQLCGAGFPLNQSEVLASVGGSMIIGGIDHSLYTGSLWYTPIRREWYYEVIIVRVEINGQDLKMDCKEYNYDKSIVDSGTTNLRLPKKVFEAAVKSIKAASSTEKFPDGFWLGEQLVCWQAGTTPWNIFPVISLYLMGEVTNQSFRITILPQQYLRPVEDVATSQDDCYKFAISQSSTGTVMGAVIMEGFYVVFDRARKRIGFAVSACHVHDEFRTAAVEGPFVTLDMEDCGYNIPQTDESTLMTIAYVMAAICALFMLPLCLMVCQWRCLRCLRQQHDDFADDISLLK
# assay_details: In Vitro BACE Cell-based Assay (HEK cell assay): Aβ40 in conditioned medium of cells stably expressing Amyloid Precursor Protein, sandwich ELISA
# experimental_setup: Table IV, class symbols; read-out: HEK cell assay
pIC50: −log10 of the molar value.

*Q* Observed pIC50 on BACE1 (Homo sapiens, UniProt P56817) for NC1=N[C@@]2(CO1)c1cc(-c3cncnc3)ccc1Oc1cnc(-c3ccccc3)cc12 [compound 546] , please.
*A* > 7.00

*Q* // query: CCOc1ccc(-c2cnc3c(c2)[C@]2(COC(N)=N2)c2cc(OCC(C)(C)C)ccc2O3)cn1 [compound 804]
*A* > 7.00

*Q* Try this compound too: NC1=N[C@]2(CO1)c1cc(-c3ccc(OC(F)(F)F)cc3)ccc1Oc1ccc(-c3cncnc3)cc12 [compound 840]
*A* 6.00 to 7.00

*Q* Same lookup for NC1=N[C@@]2(CO1)c1cc(-c3cncnc3)ccc1Oc1ccc(-c3cccc(OC(F)(F)F)c3)cc12 [compound 839] , please.
*A* 5.30 to 6.00

*Q* Try this compound too: COC(=O)/C=C/c1ccc2c(c1)[C@@]1(COC(N)=N1)c1cc(-c3cccnc3)ccc1O2 [compound 918]
*A* 6.00 to 7.00

*Q* Another: NC1=N[C@@]2(CO1)c1cc(Br)ccc1Oc1ccc(-c3cccnc3)cc12 [compound 876]
*A* 5.30 to 6.00

*Q* And for NC1=N[C@@]2(CO1)c1cc(-c3ccc(F)cc3)ccc1Oc1ncc(C3=CCOCC3)cc12 [compound 583] ?
*A* > 7.00
